- Test system: Escherichia coli
- CONDITION_DESCRIPTION: Concentration 32 ug.mL-1;; ASSAY_TEST Inhibition of Bacterial Growth; detection method Absorption (OD600); MEDIA CAMHB; plate type 384well; NBS; CORNING #3640; time 18 hr
- Description: Antibacterial activity against Escherichia coli ATCC 25922 (CO-ADD:GN_001); MIC in CAMBH media using NBS plates, by OD(600)
Potency and affinity values are given separately.
Give Inhibition for every item shown.
Give bare numbers, in %.

See these solved cases before continuing.
CCCCc1ccc(NC(=O)Cn2nc3ccc(-c4ccc(C)c(C)c4)nn3c2=O)cc1
-1.54
Cc1ccc(-c2cc3c4nn(CC(=O)Nc5ccc6c(c5)OCO6)c(=O)n4ccn3n2)cc1
-1.53
CCc1ccc(N(Cc2ccccc2C)S(=O)(=O)c2cccn3c(C)nnc23)cc1
-5.19
O=c1c2sccc2n2c(=O)n(Cc3cccc(Cl)c3)nc2n1Cc1cccs1
-5.83
CCOc1ccccc1NC(=O)Cn1nc2c(Oc3ccccc3)nccn2c1=O
-3.4
Cc1ccc(-c2ccc3nn(Cc4ccc(N5CCCC5=O)cc4)c(=O)n3n2)cc1
-5.45
Cc1ccccc1NC(=O)Cn1nc2c(SC3CCCCC3)nccn2c1=O
-9.01
Cc1ccc(NC(=O)CSc2nnc3c(=O)n(-c4ccccc4)ccn23)c(C)c1
-16.98

I'm hoping you can list Inhibition for every compound here, please.
1. Cc1ccccc1N1CCN(c2nccn3c(=O)n(CC(=O)Nc4cccc(C(C)C)c4)nc23)CC1
2. Cc1ccc(CN(c2cccc(F)c2)S(=O)(=O)c2ccc3nnc(C)n3c2)cc1

Solution:
1: -9.47; 2: -15.84

I'm hoping you can list Inhibition for every compound here, please.
1. CCOc1ccccc1CNC(=O)CCc1nnc2ccc(-c3ccc(C)cc3)nn12
2. Cc1ccc(-c2cc3c4nn(CC(=O)NCc5ccccc5Cl)c(=O)n4ccn3n2)cc1C
3. O=c1c2nnc(SCc3ccccc3F)n2ccn1-c1ccc(F)cc1

Solution:
[-0.64, 0.46, -3.23]

I'm hoping you can list Inhibition for every compound here, please.
1. CC(C)c1ccc(NC(=O)CSc2nnc3c(=O)n(-c4ccccc4)ccn23)cc1
2. Cc1ccc(NC(=O)Cn2nc3c4c5c(sc4ncn3c2=O)CCCC5)c(Cl)c1
3. COc1ccc(N(Cc2ccccc2F)S(=O)(=O)c2ccc3nnc(C)n3c2)cc1

Solution:
1: -7.12; 2: -9.07; 3: -7.31

I'm hoping you can list Inhibition for every compound here, please.
1. Cc1cc(C)c(NC(=O)Cn2nc3c4c5c(sc4ncn3c2=O)CCCC5)c(C)c1
2. O=c1n(Cc2cccc(Br)c2)nc2ccc(-c3ccccc3)nn12
3. COc1ccc(-c2cc3c4nn(CC(=O)Nc5cc(C)ccc5C)c(=O)n4ccn3n2)cc1
4. O=C(CSc1nnc2c(=O)n(-c3ccccc3)ccn12)Nc1ccc(Cl)cc1
5. Cc1cc(F)ccc1NC(=O)Cn1nc2c(SCc3ccc(Cl)cc3)nccn2c1=O

Solution:
[-5.83, -3.48, 2.02, -4.07, -4.86]

I'm hoping you can list Inhibition for every compound here, please.
1. COc1ccc(NC(=O)Cn2nc3ccc(SCc4ccc(Cl)cc4)nn3c2=O)cc1OC
2. CCN(C(=O)Cn1nc2cc(C)nc(Nc3ccc(C)c(F)c3)n2c1=O)c1ccccc1
3. CCc1nnc2ccc(S(=O)(=O)N(Cc3ccc(F)cc3)c3ccc(OC)cc3)cn12

Solution:
-7.61
-1.02
-3.2

I'm hoping you can list Inhibition for every compound here, please.
1. Cc1nnc2c(=O)n(CC(=O)Nc3ccccc3Br)c3ccccc3n12
2. Cc1ccc(Oc2nccn3c(=O)n(CC(=O)Nc4ccc5c(c4)OCO5)nc23)cc1
3. Cc1ccc(Cn2c(=O)c3ccc(C(=O)NC4CCCC4)cc3n3c(=O)n(CC#N)nc23)cc1

Solution:
5.04
-6.61
1.56

I'm hoping you can list Inhibition for every compound here, please.
1. CCCCOc1ccc(-c2cc3c4nnc(SCC(=O)N(C)c5ccc(F)cc5)n4ccn3n2)cc1
2. COc1ccc(-c2cc3c4nn(CC(=O)Nc5ccc(OC)c(Cl)c5)c(=O)n4ccn3n2)cc1
3. CC(C)CCn1c(=O)c2ccc(C(=O)NC3CCCCC3)cc2n2c(=S)[nH]nc12
4. N#Cc1ccc(NC(=O)CSc2nnc3c4cc(-c5ccc(F)cc5)nn4ccn23)cc1
5. CC1CCc2c(sc3ncn4c(=O)n(CC(=O)Nc5ccc6c(c5)CCC6)nc4c23)C1 (stereo not given)
6. Cc1ccc(-n2ccn3c(SCC(N)=O)nnc3c2=O)cc1C
7. CCOC(=O)c1ccccc1NC(=O)Cn1c(=O)c2nnc(C(C)C)n2c2ccccc21
8. Cc1cc2nn(CC(=O)Nc3ccccc3F)c(=O)n2c(Nc2ccc(C)c(F)c2)n1

Solution:
1: -5.6; 2: -6.71; 3: -9.84; 4: -4.2; 5: -2.81; 6: 0.16; 7: 0.49; 8: -14.62

I'm hoping you can list Inhibition for every compound here, please.
1. Cc1ccc(NC(=O)Cn2nc3c(Oc4ccccc4Cl)nccn3c2=O)cc1F
2. Cc1cc(C)cc(Nc2nc(C)cc3nn(CC(=O)Nc4ccc(C)c(F)c4)c(=O)n23)c1
3. Cc1c(Cl)cccc1-n1ccn2c(=O)n(Cc3ccc(F)cc3)nc2c1=O
4. Cc1cc2nn(CC(=O)NCc3ccccc3)c(=O)n2c(-c2ccc(C(F)(F)F)cc2)n1
5. CCc1nnc2c(SCC(=O)Nc3ccc(Cl)cc3)nc3ccccc3n12

Solution:
1. -2.62
2. -0.61
3. -11.88
4. -8.01
5. 2.66
